Measured values drawn from paper PMC12707346 for this set.

Test: Tissue distribution study in mice, 20 mg/kg i.p.
Type: in vivo, C57BL/6 J mice
Conditions: male, C57BL/6J, mouse, liver, ip, 20 mg/kg, Liver, 0.5 h, IP 20 mg/kg, read-out: Mean Tissue
readout: concentration at 0.5 h (ng/g)
Number in ng/g, nothing else.

What measured concentration at 0.5 h goes with c1ccc(-c2nnc(-c3ccccn3)nc2NC2CCCCC2)cc1 ?
14400

---

Test: Tissue distribution study in mice, 20 mg/kg i.p.
Assay type: in vivo, C57BL/6 J mice
Details: male, C57BL/6 J; Kidney, 8 h; mouse, IP 20 mg/kg; read-out: Mean Tissue/ Plasma Conc Ratio
Description: Male C57BL/6 J (Jackson Laboratories) wild type mice (age: 40–60 days) weighing 25–30 g, were used for the tissue distribution study. Mice were randomly assigned in two groups: blank (n = 1) and treatment. The treatment group received 20 mg/kg compound 424 intraperitoneally (n = 15; 3 animals per time point i.e., 0.5, 1, 2, 4, and 8 h). Molport 002–877–424 was formulated in a vehicle consisting of 20 % DMSO, 50 % PEG300, and 30 % sterile water. […]
readout: Kp at 8 h
Response field accepts a number only; no unit should be typed.

What measured Kp at 8 h goes with c1ccc(-c2nnc(-c3ccccn3)nc2NC2CCCCC2)cc1 ?
0.758

---

Assay: Tissue distribution study in mice, 20 mg/kg i.p.
Format: in vivo, C57BL/6 J mice
Settings: male, C57BL/6J, mouse, liver, ip, 20 mg/kg, Liver, 1 h, IP 20 mg/kg, read-out: Mean Tissue
readout: concentration at 1 h (ng/g)
Number in ng/g, nothing else.

What measured concentration at 1 h goes with c1ccc(-c2nnc(-c3ccccn3)nc2NC2CCCCC2)cc1 ?
12100

---

Experiment: Tissue distribution study in mice, 20 mg/kg i.p.
Assay type: in vivo, C57BL/6 J mice
Details: male, C57BL/6 J, mouse, plasma, ip, 20 mg/kg, Plasma, 2 h, IP 20 mg/kg, read-out: Mean Plasma or Tissue Homogenate Conc
Method: Male C57BL/6 J (Jackson Laboratories) wild type mice (age: 40–60 days) weighing 25–30 g, were used for the tissue distribution study. Mice were randomly assigned in two groups: blank (n = 1) and treatment. The treatment group received 20 mg/kg compound 424 intraperitoneally (n = 15; 3 animals per time point i.e., 0.5, 1, 2, 4, and 8 h). Molport 002–877–424 was formulated in a vehicle consisting of 20 % DMSO, 50 % PEG300, and 30 % sterile water. […]
readout: concentration at 2 h (ng/mL)
Number in ng/mL, nothing else.

What measured concentration at 2 h goes with c1ccc(-c2nnc(-c3ccccn3)nc2NC2CCCCC2)cc1 ?
4810

---

Experiment: Tissue distribution study in mice, 20 mg/kg i.p.
Assay type: in vivo, C57BL/6 J mice
Settings: male, C57BL/6J, liver/plasma; Liver, 2 h; mouse, IP 20 mg/kg; read-out: Mean Tissue/ Plasma Conc Ratio
readout: Kp at 2 h
Response field accepts a number only; no unit should be typed.

What measured Kp at 2 h goes with c1ccc(-c2nnc(-c3ccccn3)nc2NC2CCCCC2)cc1 [MolPort-002-877-424, C1CCC(CC1)Nc2nc(nnc2c3ccccc3)c4ccccn4] ?
1.3

---

Assay: Tissue distribution study in mice, 20 mg/kg i.p.
Assay type: in vivo, C57BL/6 J mice
Settings: male, C57BL/6J, mouse, liver homogenate, ip, 20 mg/kg, Liver, 4 h, IP 20 mg/kg, read-out: Mean Plasma or Tissue Homogenate Conc
readout: concentration at 4 h (ng/mL)
Number in ng/mL, nothing else.

What measured concentration at 4 h goes with c1ccc(-c2nnc(-c3ccccn3)nc2NC2CCCCC2)cc1 ?
687
